Cited source: patent US7964624B1

biological target: full-length hepatitis C viral protein NS3•4A (Hepatitis C virus genotype 1a, UniProt P27958); construct: hexa-histidine (N); made in house; host or cells: Sf9 insect cells (baculovirus, pVL1392); assay: biochemical; parameters: species or system HCV sub-type strain 1a; details: Enzyme Assay 2 (HCV NS3 Peptide Cleavage Assay) activity, apparent Ki class
readout: Ki

These solved cases illustrate the format of a correct answer.
molecule="CCC[C@H](NC(=O)[C@@H]1C[C@]2(CC(c3cccc4cccnc34)=NO2)CN1C(=O)[C@@H](NC(=O)CC1CCCCC1)C(C)(C)C)C(=O)C(=O)NC1CC1 [Compound 42]" result="< 100 nM"
molecule="CCC[C@H](NC(=O)[C@@H]1C[C@]2(CC(c3cccc4cccnc34)=NO2)CN1C(=O)[C@@H](NC(=O)OC(C)(C)C)C(C)(C)C)C(=O)C(=O)NC [Compound 644]" result="100 to 500 nM"

From here, focus on the item given below.
Query :: Supply recorded Ki for CCC[C@H](NC(=O)[C@@H]1C[C@]2(CC(c3cccc(Cl)c3)=NO2)CN1C(=O)[C@@H](NC(=O)CC1CCCCC1)C(C)(C)C)C(=O)C(=O)N1CCCC1 [Compound 496] here.
Result :: > 500 nM
